target-system: NMDA receptor (3H-Ro 25-6981 binding, rat brain membranes) (Rattus norvegicus, UniProt P35439+Q00960)
Construct: Membranes were prepared by homogenization of the whole brain minus cerebellum and medulla oblongata
Sequence (Q00960 27-1482, other chains not shown): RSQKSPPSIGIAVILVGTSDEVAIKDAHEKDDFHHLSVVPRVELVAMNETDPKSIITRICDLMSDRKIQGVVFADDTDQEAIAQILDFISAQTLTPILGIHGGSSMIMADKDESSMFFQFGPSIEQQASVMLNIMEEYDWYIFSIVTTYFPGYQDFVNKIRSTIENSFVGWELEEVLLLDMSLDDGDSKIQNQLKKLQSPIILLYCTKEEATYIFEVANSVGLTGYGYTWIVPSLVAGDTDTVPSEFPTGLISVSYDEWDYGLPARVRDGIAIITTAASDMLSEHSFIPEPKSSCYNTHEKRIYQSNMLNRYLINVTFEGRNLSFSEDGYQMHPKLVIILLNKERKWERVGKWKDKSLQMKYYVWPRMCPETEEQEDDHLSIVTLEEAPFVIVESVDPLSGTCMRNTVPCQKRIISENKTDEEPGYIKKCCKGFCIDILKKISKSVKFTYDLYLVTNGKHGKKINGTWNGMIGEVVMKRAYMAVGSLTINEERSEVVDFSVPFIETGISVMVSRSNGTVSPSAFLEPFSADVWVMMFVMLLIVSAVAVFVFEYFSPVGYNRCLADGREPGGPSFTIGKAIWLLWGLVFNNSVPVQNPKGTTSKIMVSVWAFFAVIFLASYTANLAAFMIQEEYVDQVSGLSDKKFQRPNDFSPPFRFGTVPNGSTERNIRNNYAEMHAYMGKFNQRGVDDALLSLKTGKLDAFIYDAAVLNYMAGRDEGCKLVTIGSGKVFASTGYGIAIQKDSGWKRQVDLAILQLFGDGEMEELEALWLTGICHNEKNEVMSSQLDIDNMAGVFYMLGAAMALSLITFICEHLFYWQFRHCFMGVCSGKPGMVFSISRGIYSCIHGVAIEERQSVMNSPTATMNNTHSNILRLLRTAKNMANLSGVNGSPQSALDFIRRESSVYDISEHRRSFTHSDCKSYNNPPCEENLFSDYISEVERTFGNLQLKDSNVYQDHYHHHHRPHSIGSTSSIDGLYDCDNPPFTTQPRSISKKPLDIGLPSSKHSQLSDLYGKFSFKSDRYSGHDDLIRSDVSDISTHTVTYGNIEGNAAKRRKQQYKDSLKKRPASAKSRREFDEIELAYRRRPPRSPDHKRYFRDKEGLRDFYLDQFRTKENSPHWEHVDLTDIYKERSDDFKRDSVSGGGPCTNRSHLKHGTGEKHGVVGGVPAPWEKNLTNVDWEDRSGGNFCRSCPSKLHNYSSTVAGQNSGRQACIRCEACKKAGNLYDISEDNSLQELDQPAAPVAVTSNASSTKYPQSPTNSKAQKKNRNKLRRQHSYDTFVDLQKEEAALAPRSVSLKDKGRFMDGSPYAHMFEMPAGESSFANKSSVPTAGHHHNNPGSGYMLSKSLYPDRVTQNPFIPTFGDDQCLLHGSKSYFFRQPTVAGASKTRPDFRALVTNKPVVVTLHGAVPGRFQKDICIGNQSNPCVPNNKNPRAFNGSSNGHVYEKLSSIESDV
assay-method-text: 3H-Ro 25-6981 binding
measurement-setup: 5 nM 3H-Ro 25-6981, 2 hours at 4° C.
Where a name gives a salt, the structure may show the parent alone.
readout-label: IC50 (nM)
Expressed in nM, but write only the number.

# compound, unit-label, IC50
records = [
    ("CS(=O)(=O)Nc1ccc2c(c1)CC(CN1CCC(O)(Cc3ccc(Cl)cc3)CC1)O2 (racemic) [Example 22, Hydrochloride]", "nM", 40),
    ("Cc1ccc(CC2(O)CCN(C[C@H]3CCc4cc(O)ccc4[C@@H]3O)CC2)cc1 (racemic) [Example 27, fumarate salt]", "nM", 26),
]

IN: Please give the documented IC50 of Cc1ccc(CC2(O)CCN(CC3=Cc4ccc(O)cc4CC3)CC2)cc1 [Example 1]
OUT: 40
